System: Enterococcus faecium 10
Construct: 10
Assay: microbe, parasite or virus in culture
Parameters: CLSI broth microdilution MIC in MHB-II
Conditions: Enterococcus faecium, 10, 18 h, read-out: MIC
Please provide measured MIC for the entries that follow.
One number for each entry, in µg/mL.

Example compounds with recorded MIC:
Task item: What value of MIC has been recorded for this entry: CCCCCCCCCCCCCCCC(=O)N[C@@H](CCCNC(=N)N)C(=O)Nc1cccc(CN[C@H](C(=O)O)[C@H](O[C@@H]2O[C@H](CN)[C@@H](O)[C@H]2O)[C@H]2O[C@@H](n3ccc(=O)[nH]c3=O)[C@H](O)[C@@H]2O)c1 [compound 8, analogue 8]
Reply: 1

Task item: What value of MIC has been recorded for this entry: CCCCCCCCCCCCCCCC(=O)N[C@@H](CCCCN)C(=O)Nc1cccc(CN[C@H](C(=O)O)[C@H](O[C@@H]2O[C@H](CN)[C@@H](O)[C@H]2O)[C@H]2O[C@@H](n3ccc(=O)[nH]c3=O)[C@H](O)[C@@H]2O)c1 [compound 6, analogue 6]
Reply: 1

Moving on to another compound below.
Task item: What value of MIC has been recorded for this entry: CCCCCCCCCCCCCCCC(=O)N[C@@H](CCCNC(=N)N)C(=O)NCc1ccc(CN[C@H](C(=O)O)[C@H](O[C@@H]2O[C@H](CN)[C@@H](O)[C@H]2O)[C@H]2O[C@@H](n3ccc(=O)[nH]c3=O)[C@H](O)[C@@H]2O)cc1 [compound 3, analogue 3]
Reply: 1

---

System: Enterococcus faecalis 30
Construct: 30
Assay: microbe, parasite or virus in culture
Parameters: CLSI broth microdilution MIC in MHB-II
Conditions: Enterococcus faecalis, 30, 18 h, read-out: MIC
assay.endpoint: MIC (µg/mL)
One number for each entry, in µg/mL.

Example compounds with recorded MIC:
Task item: What value of MIC has been recorded for this entry: `CCCCCCCCCCCCCCCC(=O)N[C@@H](CCCCN)C(=O)NCc1cccc(CN[C@H](C(=O)O)[C@H](O[C@@H]2O[C@H](CN)[C@@H](O)[C@H]2O)[C@H]2O[C@@H](n3ccc(=O)[nH]c3=O)[C@H](O)[C@@H]2O)c1`
Reply: 0.25

Task item: What value of MIC has been recorded for this entry: `CN[C@H](CC(C)C)C(=O)N[C@H]1C(=O)N[C@@H](CC(N)=O)C(=O)N[C@H]2C(=O)N[C@H]3C(=O)N[C@H](C(=O)N[C@H](C(=O)O)c4cc(O)cc(O)c4-c4cc3ccc4O)[C@H](O)c3ccc(c(Cl)c3)Oc3cc2cc(c3O[C@@H]2O[C@H](CO)[C@@H](O)[C@H](O)[C@H]2O[C@H]2C[C@](C)(N)[C@H](O)[C@H](C)O2)Oc2ccc(cc2Cl)[C@H]1O`
Reply: 1

Task item: What value of MIC has been recorded for this entry: `CCCCCCCCCCCCCCCC(=O)N[C@@H](CCCNC(=N)N)C(=O)Nc1ccc(CN[C@H](C(=O)O)[C@H](O[C@@H]2O[C@H](CN)[C@@H](O)[C@H]2O)[C@H]2O[C@@H](n3ccc(=O)[nH]c3=O)[C@H](O)[C@@H]2O)cc1`
Reply: 0.25

Task item: What value of MIC has been recorded for this entry: `CCCCCCCCCCCCCCCC(=O)N[C@@H](CCCCN)C(=O)Nc1cccc(CN[C@H](C(=O)O)[C@H](O[C@@H]2O[C@H](CN)[C@@H](O)[C@H]2O)[C@H]2O[C@@H](n3ccc(=O)[nH]c3=O)[C@H](O)[C@@H]2O)c1`
Reply: 0.5

Task item: What value of MIC has been recorded for this entry: `CCCCCCCCCCCCCCCC(=O)N[C@@H](CCCNC(=N)N)C(=O)NCc1cccc(CN[C@H](C(=O)O)[C@H](O[C@@H]2O[C@H](CN)[C@@H](O)[C@H]2O)[C@H]2O[C@@H](n3ccc(=O)[nH]c3=O)[C@H](O)[C@@H]2O)c1`
Reply: 0.25

Moving on to another compound below.
Task item: What value of MIC has been recorded for this entry: `C[C@H]1COc2c(N3CCN(C)CC3)c(F)cc3c(=O)c(C(=O)O)cn1c23`
Reply: 1
